# study system: UniProtKB P48730
pKi: −log10 of the molar value.

structure smiles: O=C(Nc1nc2ccc(C(F)(F)F)cc2s1)Sc1nccc(=O)n1Cc1ccc(OC(F)(F)F)cc1
study system: UniProtKB P48730
pKi: 6.70

====

# study system: 6×His-CK1ε (Homo sapiens, UniProt P49674)
# Sequence (P49674 whole entry): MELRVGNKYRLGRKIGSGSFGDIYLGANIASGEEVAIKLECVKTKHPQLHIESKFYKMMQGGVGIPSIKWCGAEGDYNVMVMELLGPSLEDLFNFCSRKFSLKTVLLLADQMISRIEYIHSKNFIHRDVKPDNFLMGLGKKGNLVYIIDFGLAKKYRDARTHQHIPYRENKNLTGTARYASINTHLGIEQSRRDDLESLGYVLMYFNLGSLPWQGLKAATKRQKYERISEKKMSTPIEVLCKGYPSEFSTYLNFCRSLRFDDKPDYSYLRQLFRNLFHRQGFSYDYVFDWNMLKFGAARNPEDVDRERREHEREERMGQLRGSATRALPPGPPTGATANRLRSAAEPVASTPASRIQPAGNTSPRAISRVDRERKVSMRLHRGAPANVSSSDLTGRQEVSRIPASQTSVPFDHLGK
pIC50: −log10 of the molar value.

structure smiles: Nc1ncnc2c1c(COc1cccc(Cl)c1)nn2C1CCOCC1
study system: 6×His-CK1ε (Homo sapiens, UniProt P49674)
pIC50: 7.14

====

# study system: 6×His-CK1ε (Homo sapiens, UniProt P49674)

structure smiles: Nc1ncnc2c1c(COc1cccc(Cl)c1)nn2C1CCOCC1
study system: 6×His-CK1ε (Homo sapiens, UniProt P49674)
quantity unit: nM
Ki: 36.2

====

# study system: GST-CK1δ (Homo sapiens)
# Sequence (P48730 whole entry): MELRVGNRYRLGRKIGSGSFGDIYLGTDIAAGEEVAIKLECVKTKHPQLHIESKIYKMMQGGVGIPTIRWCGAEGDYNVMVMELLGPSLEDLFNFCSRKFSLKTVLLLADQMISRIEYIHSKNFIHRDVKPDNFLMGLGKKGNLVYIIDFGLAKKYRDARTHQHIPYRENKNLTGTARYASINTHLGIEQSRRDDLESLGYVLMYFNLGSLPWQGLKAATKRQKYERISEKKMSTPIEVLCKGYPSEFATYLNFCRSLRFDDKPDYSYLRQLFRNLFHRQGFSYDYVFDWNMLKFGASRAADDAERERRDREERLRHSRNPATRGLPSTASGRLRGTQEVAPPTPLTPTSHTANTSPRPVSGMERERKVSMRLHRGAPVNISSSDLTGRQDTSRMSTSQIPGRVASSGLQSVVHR
pIC50: −log10 of the molar value.
measurement name: pIC50

structure smiles: O=C(Nc1nc2ccc(C(F)(F)F)cc2s1)Sc1nccc(=O)n1Cc1ccc(OC(F)(F)F)cc1
val: 6.40

====

# study system: 6×His-CK1δ (Homo sapiens, UniProt P48730)
# Sequence (P48730 whole entry): as above
# experiment: radiometric in vitro kinase reaction, 6×His-CK1δ, phosphate incorporation into α-casein
# measurement parameters: 6×His-CK1δ 70 nM, 10 min, ATP equal to Km (ATP) 14 µM, α-casein 10 µM, 30 °C

molecule: O=C(Nc1nc2ccc(C(F)(F)F)cc2s1)Sc1nccc(=O)n1Cc1ccc(OC(F)(F)F)cc1 [Liu-20]
IC50 / µM: 0.404

====

# study system: GST-CK1δ (Homo sapiens)
measurement name: Ki (nM)

compound: O=C(Nc1nc2ccc(C(F)(F)F)cc2s1)Sc1nccc(=O)n1Cc1ccc(OC(F)(F)F)cc1 [Liu-20]
val: 198
